# assayed.system: wild-type Androgen Receptor (AR-wt) (Homo sapiens, UniProt P10275)
# Construct: expressed in transfected cells; host or cells: LNCaP (LNCaP AR (cs))
# protocol.summary: LNCaP-AR-wt ANT reporter assay (ARE firefly luciferase, antagonist mode)
# Format: cell-based
# experimental.conditions: maximum % inhibition of R1881 control response over tested concentration range; read-out: LNCaP-AR-wt ANT MAX % Inh
assay.readout: Emax

# annotated cases, reported Emax shown
CN1CCN(Cc2ccc(N3C(=S)N(c4cnc(C#N)c(C(F)(F)F)c4)C(=O)C34CCC4)cc2)CC1
100%
N#Cc1ncc(N2C(=O)C3(CCC3)N(c3cccc(F)c3)C2=S)cc1C(F)(F)F
100%

Could you tell me Emax for each of these compounds? They are listed below.
1. Cc1cc(N2C(=O)C(C)(C)N(c3ccc(OC4CCN(C)CC4)cc3)C2=S)cnc1C#N
2. COc1ccc(N2C(=S)N(c3cnc(C#N)c(C)c3)C(=O)C23CCC3)cc1
3. Cc1ccc(N2C(=S)N(c3cnc(C#N)c(C)c3)C(=O)C23CCC3)cc1
4. N#Cc1ncc(N2C(=O)C3(CCC3)N(c3ccc(C(=O)N4CCCC4)c(F)c3)C2=S)cc1C(F)(F)F
5. N#Cc1ncc(N2C(=O)C3(CCC3)N(c3ccc(OCCN4CCCCC4)cc3F)C2=S)cc1C(F)(F)F
6. CN1CCN(CCCNC(=O)c2ccc(N3C(=S)N(c4cnc(C#N)c(C(F)(F)F)c4)C(=O)C34CCC4)cc2F)CC1

Result block:
1. 100%
2. 102%
3. 102%
4. 101%
5. 98.5%
6. 94.5%

* * *

# assayed.system: F876L mutant Androgen Receptor (AR-F876L) (Homo sapiens, UniProt P10275, F877L)
# Construct: expressed in transfected cells; host or cells: LNCaP (LNCaP F876L)
# Sequence (P10275 whole entry F877L): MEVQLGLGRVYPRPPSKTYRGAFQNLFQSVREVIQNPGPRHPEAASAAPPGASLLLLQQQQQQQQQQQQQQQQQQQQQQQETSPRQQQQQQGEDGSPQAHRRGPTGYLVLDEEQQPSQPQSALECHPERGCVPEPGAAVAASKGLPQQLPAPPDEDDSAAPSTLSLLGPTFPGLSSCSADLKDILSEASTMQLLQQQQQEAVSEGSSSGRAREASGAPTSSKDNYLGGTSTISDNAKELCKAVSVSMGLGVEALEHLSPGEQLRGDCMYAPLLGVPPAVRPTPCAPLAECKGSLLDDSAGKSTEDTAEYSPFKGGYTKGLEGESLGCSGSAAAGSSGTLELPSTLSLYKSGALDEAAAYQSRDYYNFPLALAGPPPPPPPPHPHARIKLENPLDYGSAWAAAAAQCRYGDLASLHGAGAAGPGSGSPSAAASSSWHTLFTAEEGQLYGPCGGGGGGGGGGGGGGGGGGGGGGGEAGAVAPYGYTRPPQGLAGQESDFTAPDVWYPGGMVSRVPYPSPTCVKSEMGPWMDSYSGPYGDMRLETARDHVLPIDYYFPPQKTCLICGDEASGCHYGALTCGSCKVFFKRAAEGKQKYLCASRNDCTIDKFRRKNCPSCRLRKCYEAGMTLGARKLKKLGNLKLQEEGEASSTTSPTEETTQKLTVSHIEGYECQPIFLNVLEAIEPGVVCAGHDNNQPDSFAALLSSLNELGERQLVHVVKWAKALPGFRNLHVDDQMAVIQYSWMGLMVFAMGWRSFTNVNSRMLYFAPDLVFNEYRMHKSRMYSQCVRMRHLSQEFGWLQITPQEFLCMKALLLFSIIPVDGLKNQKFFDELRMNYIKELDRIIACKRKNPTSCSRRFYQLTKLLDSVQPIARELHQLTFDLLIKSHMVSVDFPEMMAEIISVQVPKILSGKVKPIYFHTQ
# protocol.summary: LNCaP-AR-F876L ANT reporter assay (ARE firefly luciferase, antagonist mode)
# Assay type: cell-based
# experimental.conditions: read-out: LNCaP-AR-F876L ANT MAX % Inh
assay.readout: Emax (%)
One number for each entry, in %.

Examples from the recorded data:
Cc1cc(N2C(=O)C3(CCC3)N(c3ccc(C(=O)Nc4nccs4)c(F)c3)C2=S)cnc1C#N
83.4
Cc1cc(N2C(=O)C3(CCC3)N(c3ccc(OC4CCOCC4)cc3)C2=S)cnc1C#N
99.7
N#Cc1ncc(N2C(=O)C3(CCC3)N(c3ccc(Oc4ccccn4)cc3)C2=S)cc1C(F)(F)F
64.9
N#Cc1ncc(N2C(=O)C3(CCC3)N(c3ccc(Oc4cncnc4)cc3)C2=S)cc1C(F)(F)F
87.3
CN1CCC(Oc2ccc(N3C(=S)N(c4cnc(C#N)c(C(F)(F)F)c4)C(=O)C34CCC4)cc2F)CC1
100
N#Cc1ncc(N2C(=O)C3(CCC3)N(c3ccc(C(=O)NCc4cccs4)c(F)c3)C2=S)cc1C(F)(F)F
100
CNC(=O)c1ccc(N2C(=S)N(c3cnc(C#N)c(C)c3)C(=O)C2(C)C)cc1F
98.7

// below: Emax requested for another molecule
Query block: # lookup: Emax of COCCNC(=O)c1ccc(N2C(=S)N(c3cnc(C#N)c(C(F)(F)F)c3)C(=O)C23CCC3)cc1F
Result block: 98.3

* * *

Provide the reported IC50 of each item.
# assayed.system: F876L mutant Androgen Receptor (AR-F876L) (Homo sapiens, UniProt P10275, F877L)
# Construct: expressed in transfected cells; host or cells: LNCaP (LNCaP F876L)
# protocol.summary: LNCaP-AR-F876L ANT reporter assay (ARE firefly luciferase, antagonist mode)
# Assay type: cell-based
# experimental.conditions: read-out: LNCaP-AR-F876L ANT pIC50 (converted)
Give bare numbers, in nM.

Solved entries:
Cc1cc(N2C(=O)C3(CCC3)N(c3ccc(-c4cccnc4C)cc3)C2=S)cnc1C#N
158
Cc1cc(N2C(=O)C3(CCC3)N(c3ccc(C4CCOCC4)cc3)C2=S)cnc1C#N
363
N#Cc1ncc(N2C(=O)C3(CCC3)N(c3ccc(OCCc4ncccn4)c(F)c3)C2=S)cc1C(F)(F)F
832
CNC(=O)c1ccc(N2C(=S)N(c3cnc(C#N)c(C)c3)C(=O)C23CCC3)cc1OC
288

I would be grateful if you could provide IC50 for each of the following entries.
1. CNC(=O)c1ccc(N2C(=S)N(c3cnc(C#N)c(C)c3)C(=O)C2(C)C)cc1F
2. N#Cc1ncc(N2C(=O)C3(CCC3)N(c3cccc(F)c3)C2=S)cc1C(F)(F)F

Result block:
229
631

Can you give me IC50 for all of these, one by one?
1. N#Cc1ncc(N2C(=O)C3(CCC3)N(c3ccc(C(=O)NCc4ccco4)c(F)c3)C2=S)cc1C(F)(F)F
2. Cc1cc(N2C(=O)C3(CCC3)N(c3ccc(OC4CCN(C)CC4)cc3)C2=S)cnc1C#N
3. N#Cc1ncc(N2C(=O)C3(CCC3)N(c3ccc(O)cc3F)C2=S)cc1C(F)(F)F

Result block:
1. 851
2. 269
3. 195

Hi there! I need IC50 for each item below, if you can.
1. N#Cc1ncc(N2C(=O)C3(CCC3)N(c3ccc(F)cc3)C2=S)cc1C(F)(F)F
2. N#Cc1ncc(N2C(=O)C3(CCC3)N(c3ccc(C(=O)NCCN4CCOCC4)c(F)c3)C2=S)cc1C(F)(F)F
3. CN1CCN(CCCc2ccc(N3C(=S)N(c4cnc(C#N)c(C(F)(F)F)c4)C(=O)C34CCC4)cc2)CC1
4. Cc1cc(N2C(=O)C3(CCC3)N(c3ccc(C(=O)Nc4cncc(F)c4)c(F)c3)C2=S)cnc1C#N
5. N#Cc1ncc(N2C(=O)C3(CCC3)N(c3ccc(Oc4ccccn4)cc3)C2=S)cc1C(F)(F)F
6. Cc1cc(N2C(=O)C3(CCC3)N(c3ccc(C(=O)Nc4nccs4)c(F)c3)C2=S)cnc1C#N
7. N#Cc1ncc(N2C(=O)C3(CCC3)N(c3cccc(F)c3F)C2=S)cc1C(F)(F)F

Result block:
501
724
245
871
107
219
631
